Where do the numbers come from? From PubChem BioAssay AID602399.

tested on: Nicotinate-nucleotide adenylyltransferase NadD (Staphylococcus aureus N315); assay: S. aureus NadD enzyme activity blockers – biochemical, colorimetric, uHTS, primary screen (AID 602399); conditions: purified NadD enzyme, colorimetric absorbance read-out; at 20 µM; hits give high values
The whole screen tested about 360,000 compounds, of which about 2,800 (0.78%) were called active. For the sample, actives were picked, then their nearest neighbours and some compounds at random.
Below, each entry is listed with its recorded inhibition.
Give your result in % as a bare value.

Below: 2 molecules and their reported inhibition.
molecule: COC(=O)CN1C(=O)C2(C(C(=O)OC)=C(N)Oc3ccccc32)C2=C1CC(C)(C)CC2=O (stereo not drawn)
metric: inhibition
value-observed: -11.2
//
molecule: COC(=O)C1=C(c2cc3ccccc3o2)C[C@@H]2CC[C@H]1N2C(=O)NC1CCCCC1
metric: inhibition
value-observed: 0.201

Okay, next one:
Prompt line: inhibition lookup needed for Cc1cccc(NC(=O)N2CC3CC(C2)c2cccc(=O)n2C3)c1 (stereo not drawn) , thanks.
Response line: -1.21
